# System: HepG2
# test summary: cytotoxicity call (relative viability < 0.9)
# test settings: 10 µM
Out of some 39,000 compounds screened, about 3,300 (8.5%) were called active. The list comes from a sample in which actives are over-represented; it also holds close analogues and randomly drawn compounds.
Allowed answers: True = active, False = inactive

Hey, what did the test say about `C[C@H](CO)N1C[C@H](C)[C@@H](CN(C)C(=O)Nc2ccccc2)Oc2ccc(NC(=O)Nc3cccc4ccccc34)cc2C1=O` ?
False

Hey, what did the test say about `C[C@@H]1CN([C@H](C)CO)C(=O)Cc2cc(NC(=O)Nc3cccc4ccccc34)ccc2O[C@H]1CN(C)S(=O)(=O)c1ccc(Cl)cc1` ?
False

Hey, what did the test say about `C[C@@H]1CN([C@@H](C)CO)C(=O)Cc2cc(NC(=O)Nc3cccc4ccccc34)ccc2O[C@H]1CN(C)S(=O)(=O)c1ccc(Cl)cc1` ?
False

Hey, what did the test say about `CC(C)NC(=O)Nc1ccc2c(c1)C(=O)N([C@H](C)CO)C[C@H](C)[C@H](CN(C)S(=O)(=O)c1cccs1)O2` ?
False

Hey, what did the test say about `C[C@@H]1CN([C@@H](C)CO)C(=O)c2cc(NC(=O)NC3CCCCC3)ccc2O[C@H]1CN(C)Cc1ccc(C(F)(F)F)cc1` ?
False

Hey, what did the test say about `C[C@H]1CN([C@@H](C)CO)C(=O)Cc2cc(NC(=O)Nc3cccc4ccccc34)ccc2O[C@@H]1CN(C)S(=O)(=O)c1ccc(Cl)cc1` ?
False

Hey, what did the test say about `Cc1noc(C)c1NC(=O)Nc1cccc2c1O[C@@H](CN(C)S(=O)(=O)c1ccccc1)[C@@H](C)CN([C@@H](C)CO)C2=O` ?
False

Hey, what did the test say about `Cc1ccc(S(=O)(=O)N(C)C[C@@H]2Oc3ccc(NC(=O)Nc4cccc5ccccc45)cc3CC(=O)N([C@H](C)CO)C[C@@H]2C)cc1` ?
True

Further cases:
Hey, what did the test say about `O=C1CN(S(=O)(=O)Cc2ccccc2)C[C@H]2[C@H](c3ccc(C#Cc4ccc(F)cc4)cc3)[C@H](CO)N12` ?
False

Hey, what did the test say about `C[C@H](CO)N1C[C@H](C)[C@H](CN(C)S(=O)(=O)c2ccc(Cl)cc2)Oc2ccc(NC(=O)Nc3cccc4ccccc34)cc2CC1=O` ?
True

Hey, what did the test say about `OC[C@H]1O[C@@H](O[C@H]2[C@H](O)[C@@H](O)[C@@H](O)O[C@@H]2CO)[C@H](O)[C@@H](O)[C@@H]1O` ?
False

Hey, what did the test say about CC1CCC2(OC1)OC1CC3C4CC=C5CC(O)CCC5(C)C4CCC3(C)C1C2C (configuration not stated) ?
False

====

# System: HepG2
# test summary: cytotoxicity call (relative viability < 0.9)
# test settings: 10 µM
Among all 39,000 compounds or so, about 3,300 (8.5%) were called active. This is one part of a sample in which actives are shown more often than they occur.
Allowed answers: yes (1) = active, no (0) = inactive

Hey, what did the test say about `C[C@@H]1CN([C@H](C)CO)C(=O)c2cc(NS(=O)(=O)c3ccccc3)ccc2O[C@@H](C)CCCCO[C@@H]1CN(C)Cc1ccc(Cl)c(Cl)c1` ?
yes (1)

Hey, what did the test say about `C[C@@H]1CN([C@@H](C)CO)S(=O)(=O)c2ccc(C#CC(C)(C)O)cc2O[C@H]1CN(C)C(=O)CN(C)C` ?
no (0)

Hey, what did the test say about `CC(C)(C)C(=O)Nc1c[nH]c(=O)[nH]c1=O` ?
no (0)

Shifting focus to the compound that follows.
Hey, what did the test say about `C[C@H]1CCCCO[C@H](CN(C)Cc2ccc(Cl)c(Cl)c2)[C@@H](C)CN([C@@H](C)CO)C(=O)c2cc(NS(=O)(=O)c3ccccc3)ccc2O1` ?
yes (1)

====

# System: HepG2
# test summary: cytotoxicity call (relative viability < 0.9)
# test settings: 10 µM
About 3,300 (8.5%) of roughly 39,000 compounds were called active. The entries come from a sample that favours actives as a whole.
property: cytotoxicity call

Some molecules with known cytotoxicity call results, for comparison:
I am curious: what cytotoxicity call value has been reported for `N[C@@H](CCO)c1cccc(Cl)c1` ?
inactive

I am curious: what cytotoxicity call value has been reported for `Cc1noc(C)c1NC(=O)Nc1ccc2c(c1)C(=O)N([C@@H](C)CO)C[C@@H](C)[C@@H](CN(C)C(=O)Nc1ccc(F)cc1)OCCCC[C@@H](C)O2` ?
inactive

I am curious: what cytotoxicity call value has been reported for `CC(C)Cn1c(N)cc(=O)n(C)c1=O` ?
inactive

I am curious: what cytotoxicity call value has been reported for `Cc1ccc(S[C@]2(C(=O)NC3CC3)CC(=O)N(Cc3cc(C(F)(F)F)cc(C(F)(F)F)c3)[C@@H]2c2ccc(CO)cc2)cc1` ?
inactive

I am curious: what cytotoxicity call value has been reported for `O=S(=O)([O-])NC1CCCCC1.[Na+]` ?
inactive

Further cases:
I am curious: what cytotoxicity call value has been reported for `C[C@H](CO)N1C[C@H](C)[C@@H](CN(C)C(=O)c2ccc3c(c2)OCO3)Oc2cc(C#Cc3ccccc3F)ccc2S1(=O)=O` ?
inactive

I am curious: what cytotoxicity call value has been reported for `C[C@H]1CN([C@@H](C)CO)C(=O)Cc2cc(N(C)C)ccc2O[C@H]1CN(C)S(=O)(=O)c1ccc(F)cc1` ?
inactive

I am curious: what cytotoxicity call value has been reported for `COc1ccc(S(=O)(=O)Nc2cccc3c2O[C@H](CN(C)C(=O)Nc2cccc4ccccc24)[C@@H](C)CN([C@@H](C)CO)C3=O)cc1` ?
inactive

====

# Tested on: HepG2
# test summary: cytotoxicity call (relative viability < 0.9)
# test settings: 10 µM
The campaign covered roughly 39,000 compounds. About 3,300 (8.5%) were called active. The sample as a whole holds a higher share of actives than the screen did.
Allowed answers: 1 (yes) = active, 0 (no) = inactive

Hey, what did the test say about `Nc1nnc(-c2ccc([N+](=O)[O-])o2)o1` ?
0 (no)

Hey, what did the test say about `O=C1CN(N=Cc2ccc(-c3ccc([N+](=O)[O-])cc3)o2)C(=O)[N-]1.[Na+]` ?
0 (no)

Hey, what did the test say about `Cl.Clc1ccc(Cn2c(CN3CCCC3)nc3ccccc32)cc1` ?
0 (no)

Hey, what did the test say about `COc1ccc(S(=O)(=O)Nc2ccc3c(c2)C(=O)N([C@@H](C)CO)C[C@H](C)[C@@H](CN(C)S(=O)(=O)c2ccccc2)O3)cc1` ?
0 (no)

Further cases:
Hey, what did the test say about `CC1CCN(C(=O)N2c3ccccc3Sc3ccccc32)CC1` ?
0 (no)

Hey, what did the test say about `COc1ccc([Si](C)(C)[C@@H]2[C@@H](CC(=O)N(CCO)Cc3ccccc3)O[C@]3(C(=O)N(Cc4cccc(N5CCOC5=O)c4)c4ccccc43)[C@H]2C)cc1` ?
0 (no)

Hey, what did the test say about `COc1ccc2c3c([nH]c2c1)[C@@H](CO)N(C[C@]13CN(Cc2ccccc2)C1)S(=O)(=O)c1cn(cn1)C` ?
0 (no)

Hey, what did the test say about `Cc1cccc(-n2cc(CN)cn2)c1` ?
0 (no)

Hey, what did the test say about `C[C@H](CO)N1C[C@H](C)[C@@H](CN(C)C(=O)C2CCOCC2)Oc2ncc(C#CCc3ccccc3)cc2C1=O` ?
0 (no)

Hey, what did the test say about `O=C1OCCN1N=Cc1ccc([N+](=O)[O-])o1` ?
1 (yes)

Hey, what did the test say about `Cc1ccc(Cn2c3ccccc3c3ccccc32)cc1` ?
0 (no)

Hey, what did the test say about `CN(C)CC(=O)N1CC(=O)N2[C@@H](CO)[C@@H](c3ccc(C#Cc4cccnc4)cc3)[C@@H]2C1` ?
0 (no)

Hey, what did the test say about `O=C1CN(/N=C/c2ccc([N+](=O)[O-])o2)C(=O)N1` ?
1 (yes)

Hey, what did the test say about `O=[N+]([O-])c1cncn1CCN1CCOCC1` ?
0 (no)

====

# Test system: HepG2
# test summary: cytotoxicity call (relative viability < 0.9)
# test settings: 10 µM
The campaign covered roughly 39,000 compounds. About 3,300 (8.5%) were called active. Many of the other results were omitted from the sample, so actives are more common in it than they were.
Allowed answers: active, inactive

Hey, what did the test say about `C[C@H](C(=O)N(C)C[C@@H]1OCc2ccccc2-c2c(n(C)c3ccccc23)C(=O)N([C@@H](C)CO)C[C@@H]1C)c1ccccc1` ?
inactive

Further cases:
Hey, what did the test say about `C[C@H]1CN([C@@H](C)CO)C(=O)c2cc(NS(=O)(=O)c3ccc(F)cc3)ccc2O[C@H]1CN(C)C(=O)Nc1cccc2ccccc12` ?
inactive

Hey, what did the test say about `C[C@@H]1CN([C@@H](C)CO)C(=O)c2c(c3ccccc3n2C)-c2ccccc2CO[C@@H]1CN(C)C(=O)[C@H](C)c1ccccc1` ?
inactive

Hey, what did the test say about `C[C@H](C(=O)N(C)C[C@H]1OCc2ccccc2-c2c(n(C)c3ccccc23)C(=O)N([C@@H](C)CO)C[C@@H]1C)c1ccccc1` ?
active

Hey, what did the test say about `CCS(=O)(=O)N1CC[C@]2(CC1)CN([C@H](CO)c1[nH]c3cc(ccc3c12)OC)S(=O)(=O)c1cn(cn1)C` ?
inactive

Hey, what did the test say about `C[C@@H]1CN([C@@H](C)CO)C(=O)c2cc(NS(=O)(=O)c3ccc(F)cc3)ccc2O[C@H]1CN(C)CC1CC1` ?
inactive

Hey, what did the test say about `Cn1nnc(NCc2ccccc2)n1` ?
inactive

Hey, what did the test say about `CC(C)C#Cc1cnc2c(c1)C(=O)N([C@@H](C)CO)C[C@@H](C)[C@@H](CN(C)C(=O)c1ccc3c(c1)OCO3)O2` ?
inactive
